Source listed as ChEMBL document CHEMBL4739717.

EC50 overview
target: Dual specificity tyrosine-phosphorylation-regulated kinase 1A (Homo sapiens); test: Inhibition of recombinant DYRK1A (unknown origin) using Ser/Thr 18 peptide as substrate incubated for 1 hr in presence of ATP by FRET assay
Answer with a number only, understood to be in µM.

Example cases with answers are listed next.
Compound: CC(C)CC(=O)Nc1cncc(-c2cnc3[nH]nc(-c4cc5c(-c6cc(F)cc(CNS(C)(=O)=O)c6)cncc5[nH]4)c3c2)c1
Unit text: µM
EC50: 0.016

Compound: CNc1nc(NCc2ncccn2)c2c(-c3ccc4ncccc4c3)c[nH]c2n1
Unit text: µM
EC50: 0.007

Compound: CCC(=O)Nc1cncc(-c2ccc3[nH]nc(-c4cc5c(-c6cccc(F)c6)ccnc5[nH]4)c3c2)c1
Unit text: µM
EC50: 0.033

Compound: Cc1n[nH]c2ccc(-c3cncc(O[C@H]4CCNC[C@H]4F)n3)cc12
Unit text: µM
EC50: 0.021

Compound: Cc1ccncc1-c1cc2c(-c3nc4c(-c5cc(F)cc(CNS(C)(=O)=O)c5)cccc4[nH]3)n[nH]c2cn1
Unit text: µM
EC50: 0.058

Assay Dual specificity tyrosine-phosphorylation-regulated kinase 1A (Homo sapiens), sample `O=C(CC1CCNCC1)Nc1cncc(-c2ccc3[nH]nc(-c4cc5c(N6CCCCC6)nccc5[nH]4)c3n2)c1` , EC50 read: 0.006

Assay Dual specificity tyrosine-phosphorylation-regulated kinase 1A (Homo sapiens), sample `c1cncc(-c2ccc3[nH]nc(-c4nc5cnccc5[nH]4)c3n2)c1` , EC50 read: 0.097

Assay Dual specificity tyrosine-phosphorylation-regulated kinase 1A (Homo sapiens), sample `CN(C)CCNc1cc(F)cc(-c2cncc3[nH]c(-c4n[nH]c5ncc(-c6cccnc6)cc45)nc23)c1` , EC50 read: 0.005

###

biological target: Dual specificity tyrosine-phosphorylation-regulated kinase 1A (Homo sapiens); assay: Inhibition of recombinant DYRK1A (unknown origin) using Ser/Thr 18 peptide as substrate incubated for 1 hr in presence of ATP by FRET assay
Quantity measured: pEC50
# pEC50 = -log10(concentration in molar units)

Example cases with answers are listed next.
Compound: c1cncc(-c2ccc3[nH]nc(-c4nc5c(-c6cccnc6)cccc5[nH]4)c3n2)c1
Subject of test: Dual specificity tyrosine-phosphorylation-regulated kinase 1A (Homo sapiens)
pEC50: 7.28

Compound: Nc1cncc(-c2cc3c(-c4cc5c(-c6ccccc6F)nccc5[nH]4)n[nH]c3cn2)c1
Subject of test: Dual specificity tyrosine-phosphorylation-regulated kinase 1A (Homo sapiens)
pEC50: 8.30

Compound: O=C(Nc1cncc(-c2cnc3[nH]nc(-c4cc5cccnc5[nH]4)c3c2)c1)C1CCCCC1
Subject of test: Dual specificity tyrosine-phosphorylation-regulated kinase 1A (Homo sapiens)
pEC50: 7.96

Compound: O=C(Nc1cncc(-c2ccc3[nH]nc(-c4nc5c(-c6ccc(Cl)s6)nccc5[nH]4)c3n2)c1)C1CCC1
Subject of test: Dual specificity tyrosine-phosphorylation-regulated kinase 1A (Homo sapiens)
pEC50: 7.04

Compound: Cc1[nH]nc(C(=O)Nc2ccc(OC3CCN(C)CC3)nc2)c1/C=C/c1cccnc1
Subject of test: Dual specificity tyrosine-phosphorylation-regulated kinase 1A (Homo sapiens)
pEC50: 7.70

Compound: CC(C)Nc1cncc(-c2ccc3[nH]nc(-c4nc5c(-c6cc(F)cc(NCCN(C)C)c6)cncc5[nH]4)c3n2)c1
Subject of test: Dual specificity tyrosine-phosphorylation-regulated kinase 1A (Homo sapiens)
pEC50: 8.05

Compound: c1cncc(-c2ccc3[nH]nc(-c4cc5c(-c6cccnc6)ccnc5[nH]4)c3n2)c1
Subject of test: Dual specificity tyrosine-phosphorylation-regulated kinase 1A (Homo sapiens)
pEC50: 8.00

Compound: Cc1ncc(NC(=O)c2n[nH]c3ccc(-c4cnc(C)n4C)cc23)s1
Subject of test: Dual specificity tyrosine-phosphorylation-regulated kinase 1A (Homo sapiens)
pEC50: 8.40

Consider the record given below.
Recorded pEC50 (molecule `O=C(Nc1cncc(-c2ccc3[nH]nc(-c4nc5c(N6CCCCC6)cncc5[nH]4)c3c2)c1)C1CCC1` ): 8.40

###

pEC50 overview
target: Dual specificity protein kinase CLK3 (Homo sapiens); test: Inhibition of recombinant CLK3 (unknown origin) using Ser/Thr 18 peptide as substrate incubated for 1 hr in presence of ATP by FRET assay
Sequence (P49761 whole entry): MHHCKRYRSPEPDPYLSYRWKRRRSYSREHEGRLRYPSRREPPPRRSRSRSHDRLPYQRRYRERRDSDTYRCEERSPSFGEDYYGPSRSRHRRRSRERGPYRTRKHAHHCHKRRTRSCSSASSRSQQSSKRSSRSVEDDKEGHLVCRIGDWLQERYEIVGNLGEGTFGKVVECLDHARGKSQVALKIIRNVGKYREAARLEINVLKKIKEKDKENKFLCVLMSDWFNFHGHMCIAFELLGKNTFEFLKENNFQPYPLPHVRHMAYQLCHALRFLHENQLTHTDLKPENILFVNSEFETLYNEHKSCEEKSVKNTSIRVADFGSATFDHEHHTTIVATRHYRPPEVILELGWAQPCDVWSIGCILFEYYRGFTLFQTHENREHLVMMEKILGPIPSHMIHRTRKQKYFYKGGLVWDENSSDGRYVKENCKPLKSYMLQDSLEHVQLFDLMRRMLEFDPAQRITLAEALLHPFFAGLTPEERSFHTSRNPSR
# pEC50 = -log10(concentration in molar units)

Compound: CN1CCN(c2cc(CC(=O)Nc3cc4cc(-c5cnn(C)c5)ccc4cn3)ccn2)CC1
Subject of test: Dual specificity protein kinase CLK3 (Homo sapiens)
pEC50: 7.11
--
Compound: Cn1cc(-c2ccc3cnc(NC(=O)c4cnc5ccccc5c4)cc3c2)cn1
Subject of test: Dual specificity protein kinase CLK3 (Homo sapiens)
pEC50: 7.18
--
Compound: CN(C)Cc1cncc(-c2cnc3[nH]nc(-c4cc5c(-c6cccc(F)c6)nccc5[nH]4)c3c2)c1
Subject of test: Dual specificity protein kinase CLK3 (Homo sapiens)
pEC50: 7.13
--
Compound: Cc1nnc(-c2ccc3cnc(NC(=O)c4ccnc(C5=CCN(C)CC5)c4)cc3c2)s1
Subject of test: Dual specificity protein kinase CLK3 (Homo sapiens)
pEC50: 7.85
--
Compound: CCC(=O)Nc1cncc(-c2ccc3[nH]nc(-c4cc5c(N6CCCCC6)nccc5[nH]4)c3c2)c1
Subject of test: Dual specificity protein kinase CLK3 (Homo sapiens)
pEC50: 7.28

Consider the record given below.
Recorded pEC50 (compound `Cc1n[nH]c2cc(F)c(-c3cncc(O[C@H]4CCNC[C@@H]4F)n3)cc12` ): 5.89

###

biological target: Dual specificity tyrosine-phosphorylation-regulated kinase 1A (Homo sapiens, UniProt Q13627); experiment: Inhibition of recombinant DYRK1A (unknown origin) using Ser/Thr 18 peptide as substrate incubated for 1 hr in presence of ATP by FRET assay
Quantity measured: pEC50
# pEC50 = -log10(concentration in molar units)

Recorded pEC50 (molecule `O=C(Nc1ccc(N2CCC(O)CC2)nc1)c1n[nH]c2ccc(-c3cncc(CN4CCCCC4)c3)cc12` ): 9.00

Recorded pEC50 (molecule `COc1cncc(-c2ccc3[nH]nc(-c4nc5c(-c6cccc(F)c6)cncc5[nH]4)c3n2)c1` ): 7.40

Recorded pEC50 (molecule `Cc1cc(-c2ccc3[nH]nc(C(=O)Nc4ccc(OC5CCN(C)CC5)cc4)c3c2)sn1` ): 8.52

Recorded pEC50 (molecule `CC(C)(C)C(=O)Nc1cncc(-c2ccc3[nH]nc(-c4cc5c(-c6ccncc6)ccnc5[nH]4)c3c2)c1` ): 7.70

###

target: Dual specificity tyrosine-phosphorylation-regulated kinase 1A (Homo sapiens, UniProt Q13627); assay: Inhibition of recombinant DYRK1A (unknown origin) using Ser/Thr 18 peptide as substrate incubated for 1 hr in presence of ATP by FRET assay
pEC50: −log10 of the molar value.
Assign t to entries whose pEC50 meets or exceeds 8; assign f to the rest.

Compound: CC(C)CC(=O)Nc1ccncc1NC(=O)c1n[nH]c2ccc(-c3cncc(CN4CCCCC4)c3)cc12
Category: f

Compound: Cc1cn(-c2ccnc3[nH]c(-c4n[nH]c5ccc(-c6cncc(NC(=O)C7CCC7)c6)nc45)nc23)cn1
Category: f

Compound: CN(C)CCNc1cc(F)cc(-c2cccc3[nH]c(-c4n[nH]c5cnc(-c6cncc(NC(=O)C(C)(C)C)c6)cc45)cc23)c1
Category: f

Compound: CCNCc1cncc(-c2ccc3[nH]nc(-c4cc5c(-c6cccnc6)ccnc5[nH]4)c3c2)c1
Category: f

Compound: CC(C)(C)C(=O)Nc1cncc(-c2cnc3[nH]nc(-c4cc5c(-c6ccncc6)cncc5[nH]4)c3c2)c1
Category: t

-- ask Hello, I need to know if `Fc1ccc(-c2cncc3[nH]c(-c4n[nH]c5ncc(-c6cncnc6)cc45)cc23)cc1` has measured pEC50 not below 8. Thanks!
-- reply f

-- ask Hello, I need to know if `CN1CCN(c2nccc3[nH]c(-c4n[nH]c5cnc(-c6cncc(NC(=O)C(C)(C)C)c6)cc45)cc23)CC1` has measured pEC50 not below 8. Thanks!
-- reply t

-- ask Hello, I need to know if `Nc1ncc(NC(=O)c2n[nH]c3ccc(-c4cncc(CN5CCCCC5)c4)cc23)cn1` has measured pEC50 not below 8. Thanks!
-- reply t

-- ask Hello, I need to know if `O=C(Nc1cncc(-c2cnc3[nH]nc(-c4cc5c(-c6ccccc6F)nccc5[nH]4)c3c2)c1)C1CC1` has measured pEC50 not below 8. Thanks!
-- reply f

-- ask Hello, I need to know if `O=C(Nc1cncc(-c2cnc3[nH]nc(-c4cc5c(-c6ccccc6F)cncc5[nH]4)c3c2)c1)C1CC1` has measured pEC50 not below 8. Thanks!
-- reply f

###

assay: Effect on Wnt signaling pathway in human SW480 cells harbouring TCF/LEF luciferase reporter gene and SP5-Luc reporter gene incubated for 36 to 48 hrs by luminescence assay; type: cell-based
pEC50: −log10 of the molar value.
Assign t to entries whose pEC50 meets or exceeds 6; assign f to the rest.

Take a look at these entries with their results.
Compound: CCC1(N)CN(c2cncc(-c3ccc4[nH]nc(C)c4c3)n2)C1
Category: f
--
Compound: CN1CCN(c2nccc3[nH]c(-c4n[nH]c5cc(F)c(-c6cnn(C)c6)cc45)nc23)CC1
Category: t
--
Compound: c1cc(-c2cncc3[nH]c(-c4n[nH]c5ccc(-c6cncc(CN7CCCCC7)c6)nc45)cc23)ccn1
Category: f
--
Compound: Cc1cn(-c2nccc3[nH]c(-c4n[nH]c5ccc(-c6cncc(NC(=O)CC(C)C)c6)cc45)nc23)cn1
Category: t
--
Compound: O=C(Nc1cncc(-c2ccc3[nH]nc(-c4cc5c(-c6ccccc6F)nccc5[nH]4)c3n2)c1)C1CC1
Category: t

-- ask Hello, I need to know if `COc1cccc(-c2cncc3[nH]c(-c4n[nH]c5ccc(-c6cn[nH]c6)nc45)nc23)c1` has measured pEC50 not below 6. Thanks!
-- reply f
